- testName: Example 4 Group A: plasma pharmacokinetics in healthy volunteers (LC/MS/MS)
- testSettings: human, in vivo, 150 mg, 150 mg single dose, fasted, mean ± SD, read-out: Cmax of Compound I
- Experimental: Six sequential cohorts of 8 health volunteers per cohort were randomized via a computer-generated randomization list in the ratio of 2:6. […] Plasma samples were obtained up to 120 hours after dosing and the levels of Compound I and its Nucleoside metabolite were measured by using validated LC/MS/MS methodology. […]
reportedMetric: Cmax (ng/mL)
Numbers only here, please. The scale is ng/mL.

Qu. Quick one: Cmax of CC(C)OC(=O)[C@@H](C)N[P@@](=O)(OC[C@H]1O[C@@H](n2ccc(=O)[nH]c2=O)[C@](C)(Cl)[C@@H]1O)Oc1ccccc1 [Compound I] ?
Ans. 667

###

- testName: Example 4 Group A: plasma pharmacokinetics in healthy volunteers (LC/MS/MS)
- testSettings: human, in vivo, 300 mg, 300 mg QD, D7, fasted, mean ± SD, read-out: t1/2 of Compound I (converted)
reportedMetric: half-life (h)
// note: answer is a bare numeric in h

Qu. Quick one: half-life for CC(C)OC(=O)[C@@H](C)N[P@@](=O)(OC[C@H]1O[C@@H](n2ccc(=O)[nH]c2=O)[C@](C)(Cl)[C@@H]1O)Oc1ccccc1 ?
Ans. 2.76

###

- testName: Example 4 Group A: plasma pharmacokinetics in healthy volunteers (LC/MS/MS)
- testSettings: human, in vivo, 25 mg, 25 mg single dose, fasted, mean ± SD, read-out: AUC∞ of Compound I
reportedMetric: AUC(0-inf)

Qu. Reported AUC(0-inf) for CC(C)OC(=O)[C@@H](C)N[P@@](=O)(OC[C@H]1O[C@@H](n2ccc(=O)[nH]c2=O)[C@](C)(Cl)[C@@H]1O)Oc1ccccc1 : what is it?
Ans. 0.0512 µg·h/mL

###

- testName: Example 4 Group B: plasma pharmacokinetics in genotype 1 HCV-infected subjects (LC/MS/MS)
- testSettings: human, in vivo, 150 mg single dose, fasted, mean ± SD, read-out: t1/2 of Compound I (converted)
reportedMetric: half-life (h)
Kindly answer with a numeric value in h, unit omitted.

Qu. May I ask what half-life has been recorded for CC(C)OC(=O)[C@@H](C)N[P@@](=O)(OC[C@H]1O[C@@H](n2ccc(=O)[nH]c2=O)[C@](C)(Cl)[C@@H]1O)Oc1ccccc1 [Compound I] ?
Ans. 1.13

###

- testName: Example 4 Group B: plasma pharmacokinetics in genotype 1 HCV-infected subjects (LC/MS/MS)
- testSettings: human, in vivo, 10 mg single dose, fasted, mean ± SD, read-out: Cmax of Compound I
reportedMetric: Cmax (ng/mL)
Enter your answer as a number in ng/mL; do not include the unit.

Qu. Consider the compound shown here: CC(C)OC(=O)[C@@H](C)N[P@@](=O)(OC[C@H]1O[C@@H](n2ccc(=O)[nH]c2=O)[C@](C)(Cl)[C@@H]1O)Oc1ccccc1 [Compound I] What is its recorded Cmax?
Ans. 26.1

###

- testName: Example 4 Group B: plasma pharmacokinetics in genotype 1 HCV-infected subjects (LC/MS/MS)
- testSettings: human, in vivo, 150 mg single dose, fasted, mean ± SD, read-out: Cmax of Compound I
reportedMetric: Cmax (µg/mL)
Quick note: give the figure in µg/mL, leave out the unit.

Qu. Any idea what its Cmax is? The compound is CC(C)OC(=O)[C@@H](C)N[P@@](=O)(OC[C@H]1O[C@@H](n2ccc(=O)[nH]c2=O)[C@](C)(Cl)[C@@H]1O)Oc1ccccc1 [Compound I]
Ans. 0.297

###

- testName: Example 4 Group A: plasma pharmacokinetics in healthy volunteers (LC/MS/MS)
- testSettings: human, in vivo, 50 mg, 50 mg single dose, fasted, mean ± SD, read-out: AUC∞ of Compound I
reportedMetric: AUC(0-inf) (ng·h/mL)
Numeric answer only, unit ng·h/mL assumed.

Qu. Quick one: AUC(0-inf) of CC(C)OC(=O)[C@@H](C)N[P@@](=O)(OC[C@H]1O[C@@H](n2ccc(=O)[nH]c2=O)[C@](C)(Cl)[C@@H]1O)Oc1ccccc1 ?
Ans. 162

###

- testName: Example 4 Group B: plasma pharmacokinetics in genotype 1 HCV-infected subjects (LC/MS/MS)
- testSettings: human, in vivo, 10 mg single dose, fasted, mean ± SD, read-out: AUC∞ of Compound I
reportedMetric: AUC(0-inf) (ng·h/mL)
Unit ng·h/mL implied. Number only.

Qu. Using the record for CC(C)OC(=O)[C@@H](C)N[P@@](=O)(OC[C@H]1O[C@@H](n2ccc(=O)[nH]c2=O)[C@](C)(Cl)[C@@H]1O)Oc1ccccc1 [Compound I] , report its AUC(0-inf).
Ans. 40

###

- testName: Example 4 Group B: plasma pharmacokinetics in genotype 1 HCV-infected subjects (LC/MS/MS)
- testSettings: human, in vivo, 150 mg single dose, fasted, median, read-out: Tmax of Compound I
reportedMetric: Tmax

Qu. State the recorded Tmax for this entry: CC(C)OC(=O)[C@@H](C)N[P@@](=O)(OC[C@H]1O[C@@H](n2ccc(=O)[nH]c2=O)[C@](C)(Cl)[C@@H]1O)Oc1ccccc1 [Compound I]
Ans. 30 min

###

- testName: Example 4 Group B: plasma pharmacokinetics in genotype 1 HCV-infected subjects (LC/MS/MS)
- testSettings: human, in vivo, 300 mg single dose, fasted, mean ± SD, read-out: Cmax of Compound I
- Protocol: Five sequential cohorts of 3 HCV-infected subjects (HCV) per cohort received under fasted conditions open-label Compound I at single ascending doses of 10, 25, 50, 150, and 300 mg (below, “Group B”). […] Plasma samples were obtained up to 120 hours after dosing and the levels of Compound I and its Nucleoside metabolite were measured by using validated LC/MS/MS methodology. […]
reportedMetric: Cmax (ng/mL)
Field format: number, assumed ng/mL, no unit text.

Qu. Dear colleague, I am looking for the recorded Cmax of the following molecule: CC(C)OC(=O)[C@@H](C)N[P@@](=O)(OC[C@H]1O[C@@H](n2ccc(=O)[nH]c2=O)[C@](C)(Cl)[C@@H]1O)Oc1ccccc1 [Compound I]
Ans. 367

###

- testName: Example 4 Group B: plasma pharmacokinetics in genotype 1 HCV-infected subjects (LC/MS/MS)
- testSettings: human, in vivo, 25 mg single dose, fasted, mean ± SD, read-out: t1/2 of Compound I (converted)
reportedMetric: half-life (min)
State the answer as a number, implicitly in min.

Qu. # query: half-life of entry CC(C)OC(=O)[C@@H](C)N[P@@](=O)(OC[C@H]1O[C@@H](n2ccc(=O)[nH]c2=O)[C@](C)(Cl)[C@@H]1O)Oc1ccccc1
Ans. 58.2

###

- testName: Example 4 Group A: plasma pharmacokinetics in healthy volunteers (LC/MS/MS)
- testSettings: human, in vivo, 300 mg, 300 mg QD, D7, fasted, mean ± SD, read-out: AUC∞ of Compound I
reportedMetric: AUC(0-inf) (µg·h/mL)
# output: bare number, implied unit µg·h/mL

Qu. # input molecule: CC(C)OC(=O)[C@@H](C)N[P@@](=O)(OC[C@H]1O[C@@H](n2ccc(=O)[nH]c2=O)[C@](C)(Cl)[C@@H]1O)Oc1ccccc1 ; wanted: its AUC(0-inf)
Ans. 2.2

###

- testName: Example 4 Group A: plasma pharmacokinetics in healthy volunteers (LC/MS/MS)
- testSettings: human, in vivo, 150 mg, 150 mg single dose, fasted, median, read-out: Tmax of Compound I
reportedMetric: Tmax (h)
Give your result in h as a bare value.

Qu. Which measured Tmax value corresponds to CC(C)OC(=O)[C@@H](C)N[P@@](=O)(OC[C@H]1O[C@@H](n2ccc(=O)[nH]c2=O)[C@](C)(Cl)[C@@H]1O)Oc1ccccc1 ?
Ans. 1

###

- testName: Example 4 Group A: plasma pharmacokinetics in healthy volunteers (LC/MS/MS)
- testSettings: human, in vivo, 10 mg, 10 mg single dose, fasted, mean ± SD, read-out: AUC∞ of Compound I
reportedMetric: AUC(0-inf) (ng·h/mL)
Quick note: give the figure in ng·h/mL, leave out the unit.

Qu. Which AUC(0-inf) reading was recorded for the compound CC(C)OC(=O)[C@@H](C)N[P@@](=O)(OC[C@H]1O[C@@H](n2ccc(=O)[nH]c2=O)[C@](C)(Cl)[C@@H]1O)Oc1ccccc1 ?
Ans. 26

###

- testName: Example 4 Group A: plasma pharmacokinetics in healthy volunteers (LC/MS/MS)
- testSettings: human, in vivo, 300 mg, 300 mg QD, D1, fasted, mean ± SD, read-out: t1/2 of Compound I (converted)
reportedMetric: half-life (h)
API: value field is a number in h; no unit string.

Qu. Which value of half-life has been reported for CC(C)OC(=O)[C@@H](C)N[P@@](=O)(OC[C@H]1O[C@@H](n2ccc(=O)[nH]c2=O)[C@](C)(Cl)[C@@H]1O)Oc1ccccc1 [Compound I] in the records?
Ans. 1.88

###

- testName: Example 4 Group A: plasma pharmacokinetics in healthy volunteers (LC/MS/MS)
- testSettings: human, in vivo, 10 mg, 10 mg single dose, fasted, mean ± SD, read-out: t1/2 of Compound I (converted)
reportedMetric: half-life
Respond with a number, then the unit of measure.

Qu. Item under review: CC(C)OC(=O)[C@@H](C)N[P@@](=O)(OC[C@H]1O[C@@H](n2ccc(=O)[nH]c2=O)[C@](C)(Cl)[C@@H]1O)Oc1ccccc1 . Reported half-life?
Ans. 52.2 min
